Kindly supply the reported cAMP Primary assay EC50 Gluc-R values for the records listed here.
Target desc: glucagon receptor (GCGR) (human, UniProt P47871 26-477)
Sequence (P47871 26-477): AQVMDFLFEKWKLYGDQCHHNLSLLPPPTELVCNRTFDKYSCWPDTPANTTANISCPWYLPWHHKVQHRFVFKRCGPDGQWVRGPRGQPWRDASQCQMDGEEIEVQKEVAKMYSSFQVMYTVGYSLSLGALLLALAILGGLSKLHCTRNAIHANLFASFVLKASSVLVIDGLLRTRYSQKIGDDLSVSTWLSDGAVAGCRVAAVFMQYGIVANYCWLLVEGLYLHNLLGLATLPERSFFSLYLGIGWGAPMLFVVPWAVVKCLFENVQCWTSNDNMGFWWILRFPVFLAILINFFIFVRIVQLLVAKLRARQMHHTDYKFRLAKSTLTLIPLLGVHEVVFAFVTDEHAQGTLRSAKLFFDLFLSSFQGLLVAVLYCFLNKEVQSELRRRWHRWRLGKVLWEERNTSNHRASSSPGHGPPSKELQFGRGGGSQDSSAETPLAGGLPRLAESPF
Assay info: cell-based or functional assay
Starred links: 1 amine or outer side, 2 acyl side, 3 side chain; linkers in the order of their positions; H or OH if unused. Non-standard residues stand in square brackets, D forms with d. Groups on a side chain read outwards from the residue. Primed or numbered codes have the meaning given here. No end group written: not given here. *: point of attachment. γGlu = O=C(O)[C@H](CCC(=O)[*:2])N[*:1]; Stearoyl = CCCCCCCCCCCCCCCCCC(=O)*; αMeF = C[C@](N)(Cc1ccccc1)C(=O)O; αMeK = C[C@](N)(CCCCN)C(=O)O; αMeS = C[C@](N)(CO)C(=O)O; PEG2′ = not defined here; Aib = CC(C)(N)C(=O)O
Answers are plain numbers, in µM.

H[Aib]EGS[αMeF]TSDV[αMeS]S[αMeF]LEGEAA[αMeK]E[αMeF]IA[αMeF]VK([PEG2′-PEG2′-γGlu-Stearoyl])[αMeK]GG-NH2 [SEQ ID NO 102] :: 0.025
H[Aib]EGS[αMeF]TSDV[αMeS]S[αMeF]LEGEAA[αMeK]E[αMeF]IA[αMeF]VV[αMeK]K([PEG2′-PEG2′-γGlu-Stearoyl])G-NH2 [SEQ ID NO 100] :: 0.025

Proceeding to the next binder to report its cAMP Primary assay EC50 Gluc-R.
Prompt line: So what does the record say about cAMP Primary assay EC50 Gluc-R for H[Aib]EGS[αMeF]TSK([PEG2′-PEG2′-γGlu-Stearoyl])V[αMeS]S[αMeF]LEGEAA[αMeK]E[αMeF]IA[αMeF]VV[αMeK]GG-NH2 [SEQ ID NO 120] ?
Response line: 0.025
